- Measurement notes: Pharmacokinetic parameters for Valsartan following oral or intravenous administration of Valsartan solution.
- Assay type: ADME, organism-based
- Condition details: human, in vivo, po; dosed compound id 15, dosed compound name VALSARTAN, tissue Plasma
Observed property: Tmax

Would you kindly share the measured Tmax for `CCCCC(=O)N(Cc1ccc(-c2ccccc2-c2nnn[nH]2)cc1)[C@H](C(=O)O)C(C)C` ?
2 to 4 h

###

- Measurement notes: Pharmacokinetic parameters for Valsartan following oral or intravenous administration of Valsartan solution.
- Format: ADME, organism-based
- Condition details: human, in vivo; dosed compound id 15, dosed compound name VALSARTAN, route iv, tissue Plasma
Observed property: half-life (h)
Give your result in h as a bare value.

Reported half-life for `CCCCC(=O)N(Cc1ccc(-c2ccccc2-c2nnn[nH]2)cc1)[C@H](C(=O)O)C(C)C` : what is it?
6
